Taken from patent US20220332800A1.

test_target: T1, ZIKV-VLP (Native Antigen Inc.) (Zika virus)
T1 construct: also called Zika VLP; ZVLP
measurement_protocol: indirect ELISA, purified antibody serially diluted from 10 µg/ml
# EC50 annotations
experimental_readout: EC50

# binder, experimental_readout, result
rows = [
    ("anti-ZIKV antibody 270-12 (antibody, V domains shown, also called clone 270-12) VH: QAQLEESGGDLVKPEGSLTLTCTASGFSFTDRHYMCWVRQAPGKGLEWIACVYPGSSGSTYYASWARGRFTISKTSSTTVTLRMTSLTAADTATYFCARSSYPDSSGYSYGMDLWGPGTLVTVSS VL: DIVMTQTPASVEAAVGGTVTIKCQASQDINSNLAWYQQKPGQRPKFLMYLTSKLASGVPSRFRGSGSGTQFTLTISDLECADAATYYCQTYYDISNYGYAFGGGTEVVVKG", "EC50", "0.0128 µg/mL"),
    ("anti-ZIKV antibody 11-3 (antibody, V domains shown, also called clone 11-3) VH: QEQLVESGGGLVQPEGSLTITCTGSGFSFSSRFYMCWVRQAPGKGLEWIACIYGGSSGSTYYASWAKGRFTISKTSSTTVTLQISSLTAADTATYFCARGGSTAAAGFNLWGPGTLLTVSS VL: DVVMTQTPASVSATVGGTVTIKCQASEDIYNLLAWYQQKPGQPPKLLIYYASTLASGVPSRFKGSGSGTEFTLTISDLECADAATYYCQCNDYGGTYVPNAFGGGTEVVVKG", "EC50", "0.00657 µg/mL"),
    ("anti-ZIKV antibody 289-3 (antibody, V domains shown, also called clone 289-3; subclone 289-3) VH: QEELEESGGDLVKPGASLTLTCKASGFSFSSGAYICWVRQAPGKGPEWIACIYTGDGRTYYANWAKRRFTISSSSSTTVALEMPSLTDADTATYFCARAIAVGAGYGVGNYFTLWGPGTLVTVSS VL: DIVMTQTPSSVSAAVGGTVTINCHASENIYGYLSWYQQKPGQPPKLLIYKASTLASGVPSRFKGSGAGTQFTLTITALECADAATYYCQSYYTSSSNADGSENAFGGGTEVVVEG", "EC50", "0.00724 µg/mL"),
    ("anti-ZIKV antibody 78-2 (antibody, V domains shown, also called clone 78-2) VH: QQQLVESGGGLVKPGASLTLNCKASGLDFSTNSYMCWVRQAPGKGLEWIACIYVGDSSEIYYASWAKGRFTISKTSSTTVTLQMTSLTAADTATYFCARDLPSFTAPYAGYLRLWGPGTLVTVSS VL: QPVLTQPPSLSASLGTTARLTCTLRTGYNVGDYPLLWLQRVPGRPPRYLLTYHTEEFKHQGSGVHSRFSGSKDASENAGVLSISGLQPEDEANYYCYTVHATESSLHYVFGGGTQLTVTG", "EC50", "0.0319 µg/mL"),
]
